meta.source: paper PMC12992107

assay: Microsomal binding, equilibrium dialysis; assay type: in vitro ADME; details: human, human liver microsomes, microsomal binding (fraction bound), 1 μM in 0.5 mg/mL HLMs
PROPERTY LABEL: fraction unbound at 24 h, 1 μM
# output: bare number, no unit

State the recorded fraction unbound at 24 h, 1 μM for this entry: Cl.N=C(CC(O)c1cc2c(F)cc(F)cc2c2cc(C(F)(F)F)ccc12)Nc1ccc(F)cc1 (stereo not shown) [2 (TKK130)] 0.026

---

assay: Plasma protein binding, standard equilibrium dialysis assay; assay type: in vitro ADME
PROPERTY LABEL: fraction unbound at 24 h, 25 ng/mL

State the recorded fraction unbound at 24 h, 25 ng/mL for this entry: COc1ccc(/N=C(\N)CC(O)c2cc3c(F)cc(F)cc3c3cc(C(F)(F)F)ccc23)cc1 (stereo not shown) < 0.01

---

experiment: Plasma protein binding, dilution method; details: plasma
PROPERTY LABEL: fraction unbound at 24 h, 25 ng/mL
# output: bare number, no unit

State the recorded fraction unbound at 24 h, 25 ng/mL for this entry: Cl.N=C(CC(O)c1cc2c(F)cc(F)cc2c2cc(C(F)(F)F)ccc12)Nc1ccc(F)cc1 (stereo not shown) 0.004

---

test: Plasma stability; format: in vitro ADME, human; conditions: human, plasma
PROPERTY LABEL: half-life at 25 ng/mL (h)
Give the number; h is assumed, so skip it.

State the recorded half-life at 25 ng/mL for this entry: Cl.N=C(CC(O)c1cc2c(F)cc(F)cc2c2cc(C(F)(F)F)ccc12)Nc1ccc(F)cc1 (stereo not shown) [2 (TKK130)] 67
